Where do these numbers come from? They come from the supplement of paper PMC10567573.

Reported protein stability index is given for each of the following variants.
B1: BCL2L13 (parent)
chain: QSLDQEILLKVKTEIEEELKSLDK

variants of: B1; assay: protein stability index of a GFP-peptide fusion (GPS, HEK-293T) (PSI 1-6); higher = more stable; conditions: c terminus: a fixed tail appended;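 further: lentivirally expressed fusions sorted by FACS into six bins by GFP to DsRed ratio, PSI derived from sequencing read proportions per bin multiplied by bin number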
Returns: the value as a bare number; no unit string appended.

E18C; 3.41
E17G; 4.93
S2L; 3.95
L22Y; 5.02
S21I; 4.77
T13G; 4.06

Which protein stability index is listed for D23L ?
2.2

Query: protein stability index; subject: T13D
4.44

Consider the variant shown here: E17W What is its recorded protein stability index?
3.51

Would you kindly share the measured protein stability index for L3V ?
5.31
